Form field: pKi (one value per entry).
- ASSAYED_TARGET: Metabotropic glutamate receptor 5 (Homo sapiens)
- Sequence (P41594 whole entry): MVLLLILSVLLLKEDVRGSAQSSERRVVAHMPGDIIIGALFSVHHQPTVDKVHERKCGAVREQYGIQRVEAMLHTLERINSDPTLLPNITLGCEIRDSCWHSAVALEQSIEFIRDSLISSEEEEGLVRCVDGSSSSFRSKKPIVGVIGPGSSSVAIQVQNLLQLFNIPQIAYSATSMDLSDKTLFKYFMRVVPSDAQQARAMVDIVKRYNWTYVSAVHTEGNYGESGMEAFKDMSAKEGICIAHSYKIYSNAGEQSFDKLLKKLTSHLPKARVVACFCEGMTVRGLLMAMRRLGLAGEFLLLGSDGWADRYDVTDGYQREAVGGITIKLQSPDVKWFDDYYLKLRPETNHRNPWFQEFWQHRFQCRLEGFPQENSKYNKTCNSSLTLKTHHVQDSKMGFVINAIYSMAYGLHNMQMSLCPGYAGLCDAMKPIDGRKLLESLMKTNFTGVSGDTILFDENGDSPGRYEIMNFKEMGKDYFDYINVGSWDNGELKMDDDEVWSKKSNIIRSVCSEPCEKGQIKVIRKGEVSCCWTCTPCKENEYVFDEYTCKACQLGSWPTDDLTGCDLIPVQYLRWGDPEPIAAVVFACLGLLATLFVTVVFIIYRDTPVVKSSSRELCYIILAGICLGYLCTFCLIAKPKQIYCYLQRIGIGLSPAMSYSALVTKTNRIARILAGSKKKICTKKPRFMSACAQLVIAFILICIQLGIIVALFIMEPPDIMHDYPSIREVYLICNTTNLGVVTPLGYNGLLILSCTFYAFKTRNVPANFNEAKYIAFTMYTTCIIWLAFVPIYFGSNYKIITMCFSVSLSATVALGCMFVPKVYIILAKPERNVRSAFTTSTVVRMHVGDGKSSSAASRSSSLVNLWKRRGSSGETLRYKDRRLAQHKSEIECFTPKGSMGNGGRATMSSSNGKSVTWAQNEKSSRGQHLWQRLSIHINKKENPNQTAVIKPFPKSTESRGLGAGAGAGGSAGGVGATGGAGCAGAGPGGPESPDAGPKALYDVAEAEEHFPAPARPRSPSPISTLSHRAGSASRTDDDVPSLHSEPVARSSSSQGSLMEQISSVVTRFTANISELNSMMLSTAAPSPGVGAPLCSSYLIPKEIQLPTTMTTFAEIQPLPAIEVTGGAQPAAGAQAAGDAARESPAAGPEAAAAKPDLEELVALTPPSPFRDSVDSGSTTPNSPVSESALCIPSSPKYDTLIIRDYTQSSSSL
pKi: −log10 of the molar value.
READOUT_TYPE: pKi

compound=O=C(N[C@@H]1CCC[C@@H](NC(=O)c2cccc(Cl)c2)C1)c1cccc(F)c1 val=6.68
compound="COc1ccc(C(=O)N[C@H]2CCC[C@H](NC(=O)c3cccc(Cl)c3)C2)cc1 (relative stereo)" val=6.17
compound="O=C(N[C@H]1CCC[C@H](NC(=O)c2cccc(Cl)c2)C1)c1ccncc1 (relative stereo)" val=6.35
compound="O=C(NC1CCCC(NC(=O)c2cccc(Cl)c2)C1)c1cccc(F)c1 (racemic)" val=6.49
